B1: BCL2L13 (parent)
chain: MASSSTVPLGFHYETKYVVLSYLG

variants of: B1; experiment: protein stability index of a GFP-peptide fusion (GPS, HEK-293T) (PSI 1-6); higher = more stable; details: c terminus: a fixed tail appended;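 note: lentivirally expressed fusions sorted by FACS into six bins by GFP to DsRed ratio, PSI derived from sequencing read proportions per bin multiplied by bin number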
Measured metric: protein stability index
Answer using only a numeral; do not append any unit.

Reported protein stability index ( MASSSTVPLGFAYETKYVVLSYLG [H12A] ) = 2.3
